# Test system: 53BP1 TTD
# Method Notes: Histone peptide microarray, 53BP1 TTD
# Format: binding
# Settings: 53BP1 TTD hits, average signal per peptide
# Avg Signal listing for each entry below
Simply state the number, no unit and no words.

For orientation, consider the following solved cases.
Ac-SGRGK(Ac)GGKGLGKGGAKRHRKVLR-Peg-Biot [Peptide H4K5ac]	0.009315
Ac-SGRGK(Ac)QGGKARAKAKTR-Peg-Biot [Peptide H2AK5ac]	0.06555
ARTK(Ac)QTARKSTGGKAPRKQL-K(Biot)-NH2 [Peptide H3.1K4ac]	0.1441
ARTK(Me3)QTARKSTGGKAPRK(Ac)QL-K(Biot)-NH2 [H3.1K4me3K18ac]	0.08895
PEPAK(Me2)SAPAPKKGSKKAVTKAQKK-Peg-Biot [Peptide H2BK5me2]	0.1922
ARTK(Me3)QTAR(Me2s)K(Me3)STGGKAPRKQL-K(Biot)-NH2 [H3.1K4me3R8me2sK9me3]	0.09278
ARTK(Me)QTARK(Ac)STGGKAPRK(Ac)QL-K(Biot)-NH2 [H3.1K4me1K9acK18ac]	0.06582
ARTK(Ac)QTARKSTGGK(Ac)APRKQL-K(Biot)-NH2 [H3.1K4acK14ac]	0.2064

Memo: ARTK(N3)QTARKSTGGKAPRKQL-K(Biot)-NH2 [Peptide H3.1K4N3] , reported Avg Signal: 0.07618

The substance Ac-pSGCitGK(Ac)QGGKARAKAKTR-Peg-Biot [H2AS1pCit3K5ac] showed Avg Signal equal to 0.04418

# substance AR(Me2a)TKQTARKSTGGKAPRKQL-K(Biot)-NH2 [Peptide H3.1R2me2a] ; its Avg Signal = 0.05357

###

# System: ABClonal #A2355, anti-H3K4me1
# Method Notes: Histone peptide microarray, ABclonal A2355;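 also: normalized to the highest peptide average per subarray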
# Assay type: binding
# Settings: Abclonal A2355 (anti-H3K4me1) hits
Value Type: Avg Signal

Ac-SGRGK(Ac)GGK(Me)GLGK(Ac)GGAKRHRKVLR-Peg-Biot [H4K5acK8me1K12ac]	0.01786

Response field Avg Signal (ABClonal #A2355, anti-H3K4me1) for item Ac-APRK(Ac)QLATK(Ac)AARK(Ac)pSAPSTGG-Peg-Biot [H3.3K18acK23acK27acS28p] : 0.0001631

Per the reported ABClonal #A2355, anti-H3K4me1 data, ATKAARKSAPATGGVK(Me)KPHRYRPG-GK(Biotin)-OH [Peptide H3.1K36me1] has Avg Signal of 0.006039

Response field Avg Signal (ABClonal #A2355, anti-H3K4me1) for item AR(Me)TK(Me2)QTARKSTGGKAPRKQL-K(Biot)-NH2 [H3.1R2me1K4me2] : 0.4048

###

# Test system: 53BP1 TTD
# Method Notes: Histone peptide microarray, 53BP1 TTD
# Assay type: binding
# Settings: 53BP1 TTD hits, average signal per peptide
Value Type: Avg Signal
Could you respond with only the numeric value?

# count of solved cases: 4
ARTKQTAR(Me2s)K(Me3)STGGKAPRKQL-K(Biot)-NH2 [H3.1R8me2sK9me3]	0.1271
AR(Me2a)pTK(Me3)QTARKSTGGKAPRKQL-K(Biot)-NH2 [H3.1R2me2aT3pK4me3]	0.03111
ARTK(Me3)QTARKSTGGK(Ac)APRKQL-K(Biot)-NH2 [H3.1K4me3K14ac]	0.1175
Ac-IAQDFKTDLRF-Peg-K(Biot)-NH2 [H3.1.1(74-84)N-ac]	0.06248

Now for a further substance.
Let me check: Ac-IAQDFK(Me3)TDLRF-Peg-K(Biot)-NH2 [Peptide H3.1K79me3] , system 53BP1 TTD, measured Avg Signal is 0.03452
